- Tested on: SR leukemia
- testDescription: NCI tumour cell line growth inhibition, 48 h; in the data active = GI50 below about 0.43 µM; inactive = the rest
Please answer using one outcome listed in Y (active), N (inactive)

Per the assay record, what outcome was assigned to `COC(=O)c1c2c(c(C)[n+]([O-])c1C)C(=O)C(NCc1cccc(OC)c1)=CC2=O` ?
N

Per the assay record, what outcome was assigned to CS(=O)c1ccc(-c2nc(-c3ccc(F)cc3)c(-c3ccncc3)[nH]2)cc1 (stereo unspecified) ?
N

Per the assay record, what outcome was assigned to `C#CCOc1ccc2ncnc(Nc3ccc(NC(=O)CCl)cc3)c2c1` ?
N

Per the assay record, what outcome was assigned to `COc1cc(-c2nc(SCC(=O)Nc3ccc(C(C)=O)cc3)[nH]c(=O)c2C#N)cc(OC)c1OC` ?
N

Per the assay record, what outcome was assigned to `Cc1[nH]nc2c1N=C(c1ccccc1F)c1cc(C#N)ccc1N2` ?
Y

Per the assay record, what outcome was assigned to COc1ccc(NC(=O)c2sc3nc(C)c(C(O)c4ccc(OC)cc4)cc3c2N)cc1 (stereo unspecified) ?
Y

// provenance: PubChem BioAssay (NCI)
